Experiment: qHTS assay to identify small molecule antagonists of the thyroid receptor (TR) signaling pathway (AID 743065); note: nearly all actives have a fitted effect of over 55% in size
Details: GH3.TRE-Luc, T3-stimulated luciferase inhibition, 23.5 h; series mostly up to 70.3 µM
Inconclusive results are not listed. Calls of active or inactive are those of the source. Calls come from the whole dose curve; as a rule, active = well fitted inhibition curve with a large enough effect in the repeat runs; inconclusive = weak or mixed curves; inactive = no such curve, though single readings can be large or run the other way.
Classes used: YES = active, NO = inactive

{"columns": ["entry.smiles", "class"],
 "data": [
  ["NCC[C@H](O)C(=O)N[C@@H]1C[C@H](N)[C@@H](O[C@H]2O[C@H](CN)[C@@H](O)[C@H](O)[C@H]2N)[C@H](O[C@@H]2O[C@H](CO)[C@@H](O)[C@H]2O)[C@H]1O", "NO"],
  ["Clc1ccc2c(c1)C(c1ccccc1)=NCc1nncn1-2", "NO"],
  ["CCCCCc1cc(O)c2c(c1)OC(C)(C)c1ccc(C)cc1-2", "YES"],
  ["C[C@]12C[C@H]3S[C@H]3C[C@@H]1CC[C@@H]1[C@@H]2CC[C@]2(C)[C@@H](O)CC[C@@H]12", "NO"],
  ["O=C(O)/C=C\\C(=O)O", "NO"]
]}

###

Target: Acetylcholinesterase (Homo sapiens) (UniProt P22303)
Sequence (P22303 whole entry, looked up): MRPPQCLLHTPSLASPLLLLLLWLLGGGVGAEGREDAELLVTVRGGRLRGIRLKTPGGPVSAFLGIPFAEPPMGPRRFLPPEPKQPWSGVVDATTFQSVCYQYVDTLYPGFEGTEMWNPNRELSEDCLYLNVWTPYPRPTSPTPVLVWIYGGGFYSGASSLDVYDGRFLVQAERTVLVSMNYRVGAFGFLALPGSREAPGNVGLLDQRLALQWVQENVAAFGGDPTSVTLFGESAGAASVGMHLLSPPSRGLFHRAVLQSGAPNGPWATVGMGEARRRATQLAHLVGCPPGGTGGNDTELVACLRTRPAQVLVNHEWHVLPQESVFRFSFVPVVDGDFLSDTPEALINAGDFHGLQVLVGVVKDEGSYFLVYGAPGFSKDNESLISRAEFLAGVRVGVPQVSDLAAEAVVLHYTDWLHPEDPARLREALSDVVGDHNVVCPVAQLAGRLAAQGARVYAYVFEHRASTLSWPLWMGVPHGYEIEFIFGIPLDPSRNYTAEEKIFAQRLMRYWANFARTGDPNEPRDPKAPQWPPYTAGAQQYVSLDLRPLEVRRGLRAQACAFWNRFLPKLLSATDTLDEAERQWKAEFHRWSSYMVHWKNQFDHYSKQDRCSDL
Experiment: Acetylcholinesterase (AChE) small molecule antagonists: colormetric cell-based qHTS assay (AID 1347395); note: nearly all actives have a fitted effect of over 30% in size; for activity, negative = inhibition: % is set by controls: 0 for no effect and ±100 for the full control effect
Conditions: SH-SY5Y cells AChE activity, colorimetric (Ellman); series mostly up to 115 µM
Inconclusive results are not listed. Activity calls are given as the source filed them. Calls follow the shape of the full dose curve.
quantity.name: activity, negative = inhibition

{"columns": ["compound", "quantity.name", "reported.measurement"],
 "data": [
  ["CCOC(=O)C(O)(c1ccc(Cl)cc1)c1ccc(Cl)cc1", "activity, negative = inhibition", "inactive"],
  ["O=C1CCCCCCCCCCC1", "activity, negative = inhibition", "inactive"],
  ["CC(C)CCCCCOC(=O)CCCCC(=O)OCCCCCC(C)C", "activity, negative = inhibition", "inactive"],
  ["C=C[Si](C)(C)Cl", "activity, negative = inhibition", "1.82% [at 10.5 µM] (inactive)"],
  ["CCCCC(CC)COC(=O)c1ccccc1 (configuration not stated)", "activity, negative = inhibition", "inactive"],
  ["NC(=O)N(O)[C@@H]1C=C[C@H](Oc2cccc(Oc3ccc(F)cc3)c2)C1", "activity, negative = inhibition", "inactive"],
  ["O=C(O)CCc1nc(-c2ccccc2)c(-c2ccccc2)o1", "activity, negative = inhibition", "inactive"]
]}

###

Target: Acetylcholinesterase (Homo sapiens) (UniProt P22303)
Test: Acetylcholinesterase (AChE) small molecule antagonists: enzyme-based qHTS assay with human liver microsomes (AID 1347399); note: % is set by controls: 0 for no effect and ±100 for the full control effect; nearly all actives have a fitted effect of over 60% in size
Conditions: qHTS inhibition; series mostly up to 115 µM
Active and inactive are the calls of the source. Calls come from the whole dose curve.
quantity.name: outcome

{"columns": ["compound", "assay.system", "reported.measurement"],
 "data": [
  ["C=C(C)C(=O)OCCCCCCOC(=O)C(=C)C", "Acetylcholinesterase (Homo sapiens) (UniProt P22303)", "inactive"],
  ["C[C@@]12C(=O)OC(=O)[C@]1(C)C1CCC2O1", "Acetylcholinesterase (Homo sapiens) (UniProt P22303)", "inactive"],
  ["CN1CCC[C@@H]1Cc1c[nH]c2ccc(CCS(=O)(=O)c3ccccc3)cc12", "Acetylcholinesterase (Homo sapiens) (UniProt P22303)", "inactive"],
  ["NC(=O)N/N=C/c1ccc([N+](=O)[O-])o1", "Acetylcholinesterase (Homo sapiens) (UniProt P22303)", "inactive"],
  ["CC1CCCNC1 (configuration not stated)", "Acetylcholinesterase (Homo sapiens) (UniProt P22303)", "inactive"],
  ["O=C(O)CCCCC1CCSS1 (configuration not stated)", "Acetylcholinesterase (Homo sapiens) (UniProt P22303)", "inactive"],
  ["CCCCCc1cccc(=O)o1", "Acetylcholinesterase (Homo sapiens) (UniProt P22303)", "inactive"]
]}

###

Target: Acetylcholinesterase (Homo sapiens)
Experiment: Acetylcholinesterase (AChE) small molecule antagonists: colormetric cell-based qHTS assay (AID 1347395); note: nearly all actives have a fitted effect of over 30% in size; for activity, negative = inhibition: % is set by controls: 0 for no effect and ±100 for the full control effect
Conditions: SH-SY5Y cells AChE activity, colorimetric (Ellman); series mostly up to 115 µM
Results filed as inconclusive are left out. Active and inactive are the calls of the source. The call rests on the fitted dose curve.

{"columns": ["compound", "activity, negative = inhibition"],
 "data": [
  ["CCCCN(CCCC)C(=S)SSC(=S)N(CCCC)CCCC", "inactive"],
  ["O=C(O)CCCCCCCCC(=O)O", "inactive"],
  ["C=Cc1ccccc1C=C", "inactive"],
  ["C=CC(=O)OCCOC(=O)C=C", "inactive"],
  ["CN(C)CCCNCCCN(C)C", "inactive"],
  ["Cn1cnc2c(=O)[nH]c(N)nc21", "inactive"],
  ["C[C@]12CCC(=O)C=C1[C@@H]1C[C@@H]1[C@H]1[C@@H]3[C@@H]4C[C@@H]4[C@@]4(CCC(=O)O4)[C@@]3(C)CC[C@@H]12", "inactive"],
  ["C[Si](C)=O", "-2.31% [at 10.5 µM] (inactive)"],
  ["CCC(C)OC(=O)c1ccc(O)cc1 (stereo unspecified)", "inactive"],
  ["CC(C)(C)NC(=O)[C@@H]1C[C@@H]2CCCC[C@@H]2CN1C[C@@H](O)[C@H](Cc1ccccc1)NC(=O)[C@H](CC(N)=O)NC(=O)c1ccc2ccccc2n1", "inactive"],
  ["O=C(N/N=C/c1ccc([N+](=O)[O-])o1)c1ccc(O)cc1", "inactive"],
  ["COc1ccc(NC(C)=O)cc1N", "inactive"],
  ["Brc1ccccn1", "inactive"],
  ["O=C(O)CCc1nc2ccccc2[nH]1", "inactive"],
  ["CCOc1ccc(N=Nc2ccc(/C=C/c3ccc(N=Nc4ccc(OCC)cc4)cc3S(=O)(=O)O)c(S(=O)(=O)O)c2)cc1", "inactive"],
  ["CCCCC1C(=O)N(c2ccccc2)N(c2ccccc2)C1=O", "inactive"],
  ["NC(=S)Nc1cccc2ccccc12", "-0.35% [at 10.5 µM] (inactive)"],
  ["CC(C)C(=O)OCc1ccccc1", "inactive"],
  ["CCOc1ccc(NC(N)=O)cc1", "inactive"],
  ["Cc1oc(-c2ccccc2)nc1CCOc1ccc(C[C@H](Nc2ccccc2C(=O)c2ccccc2)C(=O)O)cc1", "inactive"],
  ["Cc1c[nH]c2ccccc12", "inactive"],
  ["OC(CCN1CCCCC1)(c1ccccc1)C1CCCCC1 (stereo unspecified)", "inactive"],
  ["Cc1ccccc1N=O", "inactive"],
  ["CCC(C)c1cc([N+](=O)[O-])cc([N+](=O)[O-])c1OC(=O)OC(C)C (stereo unspecified)", "inactive"],
  ["O=C(Nc1ccc(Cl)c(Cl)c1)C1CC1", "inactive"],
  ["O=c1n(CCO)c(=O)n(CCO)c(=O)n1CCO", "inactive"]
]}

###

Target: Acetylcholinesterase (Homo sapiens) (UniProt P22303)
Experiment: Acetylcholinesterase (AChE) small molecule antagonists: fluorescence cell-based qHTS assay (AID 1347398); note: % is set by controls: 0 for no effect and ±100 for the full control effect; nearly all actives have a fitted effect of over 50% in size
Conditions: SH-SY5Y cells; series mostly up to 115 µM
Inconclusive results are not listed. Active and inactive are the calls of the source. Calls come from the whole dose curve.
Entries and their activity change, negative = inhibition values follow.
quantity.name: activity change, negative = inhibition

{"columns": ["compound", "assay.system", "quantity.name", "reported.measurement"],
 "data": [
  ["NC[C@H]1O[C@H](O[C@H]2[C@H](O[C@@H]3O[C@H](CO)[C@@H](O)[C@H]3O)C(O)[C@H](N)C[C@@H]2N)[C@H](N)[C@@H](O)[C@@H]1O (stereo not given in full)", "Acetylcholinesterase (Homo sapiens) (UniProt P22303)", "activity change, negative = inhibition", "8.04% [at 10.5 µM] (inactive)"],
  ["CCCCNc1ccc(NCCCC)c2c1C(=O)c1ccccc1C2=O", "Acetylcholinesterase (Homo sapiens) (UniProt P22303)", "activity change, negative = inhibition", "1.62% [at 23.8 µM] (inactive)"],
  ["CN(C)CCCN(C)C", "Acetylcholinesterase (Homo sapiens) (UniProt P22303)", "activity change, negative = inhibition", "0.828% [at 10.5 µM] (inactive)"],
  ["CN(C)c1ccc(/C=C/c2ccc([N+](=O)[O-])cc2)cc1", "Acetylcholinesterase (Homo sapiens) (UniProt P22303)", "activity change, negative = inhibition", "4.62% [at 10.5 µM] (inactive)"],
  ["N[C@@H](Cc1ccc(O)cc1)C(=O)O", "Acetylcholinesterase (Homo sapiens) (UniProt P22303)", "activity change, negative = inhibition", "10.1% [at 10.5 µM] (inactive)"]
]}

###

Molecular target: Acetylcholinesterase (Homo sapiens) (UniProt P22303)
Test: Acetylcholinesterase (AChE) small molecule antagonists: enzyme-based qHTS assay (AID 1347397); note: % is set by controls: 0 for no effect and ±100 for the full control effect; nearly all actives have a fitted effect of over 55% in size
Conditions: series mostly up to 115 µM
Calls of active or inactive are those of the source. Calls follow the shape of the full dose curve.

{"columns": ["compound", "assay.system", "activity change, negative = inhibition"],
 "data": [
  ["C=C(C)C(=O)OCCCCCCCCCCCCCCCCCC", "Acetylcholinesterase (Homo sapiens) (UniProt P22303)", "0.946% [at 23.6 µM] (inactive)"],
  ["FC(F)(F)C(F)(F)C(F)(F)C(F)(F)C(F)(F)C(F)(F)C(F)(F)C(F)(F)C(F)(F)C(F)(F)F", "Acetylcholinesterase (Homo sapiens) (UniProt P22303)", "1.63% [at 10.5 µM] (inactive)"],
  ["O=C(O)CNCC(=O)O", "Acetylcholinesterase (Homo sapiens) (UniProt P22303)", "-0.541% [at 10.5 µM] (inactive)"],
  ["C[C@@H]1CC[C@@]2(OC1)O[C@H]1C[C@H]3[C@@H]4CC[C@H]5C[C@@H](O)CC[C@]5(C)[C@H]4CC(=O)[C@]3(C)[C@H]1[C@@H]2C", "Acetylcholinesterase (Homo sapiens) (UniProt P22303)", "-1.66% [at 10.5 µM] (inactive)"],
  ["O=c1[nH]c(=O)c2[nH]c(=O)[nH]c2[nH]1", "Acetylcholinesterase (Homo sapiens) (UniProt P22303)", "2.79% [at 10.5 µM] (inactive)"],
  ["N[C@@H](Cc1ccc(O)cc1)C(=O)O", "Acetylcholinesterase (Homo sapiens) (UniProt P22303)", "-0.135% [at 10.5 µM] (inactive)"],
  ["CC1=CC[C@@H]2C[C@H]1C2(C)C", "Acetylcholinesterase (Homo sapiens) (UniProt P22303)", "0.56% [at 23.6 µM] (inactive)"],
  ["CCN1CCN(c2cc(-c3ccc(F)cc3)c3c(n2)CCCCCC3)CC1", "Acetylcholinesterase (Homo sapiens) (UniProt P22303)", "1.01% [at 23.6 µM] (inactive)"],
  ["NC(N)=NCCN1CCCCCCC1", "Acetylcholinesterase (Homo sapiens) (UniProt P22303)", "0% [at 0.435 µM] (inactive)"],
  ["[O-][n+]1ccccc1SSc1cccc[n+]1[O-]", "Acetylcholinesterase (Homo sapiens) (UniProt P22303)", "-9.5% [at 23.6 µM] (inactive)"],
  ["N[C@@H](CSSC[C@H](N)C(=O)O)C(=O)O", "Acetylcholinesterase (Homo sapiens) (UniProt P22303)", "0.405% [at 0.435 µM] (inactive)"],
  ["Oc1cn2c(n1)Nc1ccc(Cl)c(Cl)c1C2", "Acetylcholinesterase (Homo sapiens) (UniProt P22303)", "0.842% [at 23.6 µM] (inactive)"],
  ["CCCCCCCCCCOc1cc2c(=O)c(C(=O)OCC)c[nH]c2cc1OCC", "Acetylcholinesterase (Homo sapiens) (UniProt P22303)", "0.693% [at 10.5 µM] (inactive)"],
  ["CCN[C@@H]1C[C@H](N)[C@@H](OC2OC(CN)=CCC2N)[C@H](O)[C@H]1O[C@H]1OC[C@](C)(O)[C@H](NC)[C@H]1O (stereo partly specified)", "Acetylcholinesterase (Homo sapiens) (UniProt P22303)", "0.139% [at 0.435 µM] (inactive)"],
  ["O=C(O)CN(CCOCCOCCN(CC(=O)O)CC(=O)O)CC(=O)O", "Acetylcholinesterase (Homo sapiens) (UniProt P22303)", "-0.554% [at 0.435 µM] (inactive)"],
  ["O=C=NCc1cccc(CN=C=O)c1", "Acetylcholinesterase (Homo sapiens) (UniProt P22303)", "0.393% [at 23.6 µM] (inactive)"],
  ["Cc1ccc2nc3sc(=O)sc3nc2c1", "Acetylcholinesterase (Homo sapiens) (UniProt P22303)", "0% [at 23.6 µM] (inactive)"],
  ["Nc1ccc2c(c1)CN1C(=O)c3ccccc3C1=N2", "Acetylcholinesterase (Homo sapiens) (UniProt P22303)", "1.39% [at 23.6 µM] (inactive)"],
  ["c1ccc2sc(SSc3nc4ccccc4s3)nc2c1", "Acetylcholinesterase (Homo sapiens) (UniProt P22303)", "0.97% [at 23.6 µM] (inactive)"],
  ["COC=O", "Acetylcholinesterase (Homo sapiens) (UniProt P22303)", "0.267% [at 10.5 µM] (inactive)"],
  ["CCC(Cl)CC(Cl)C(Cl)C(Cl)C(Cl)C(C)Cl (stereo unspecified)", "Acetylcholinesterase (Homo sapiens) (UniProt P22303)", "-3.68% [at 23.6 µM] (inactive)"]
]}
